Assay: Measurement of mRNA encapsulation in lipid nanoparticles (Quant-iT Ribogreen)
Assay type: physicochemical
Settings: Leptin mRNA in LNP
Method: All equipment and disposable supplies are certified free of RNase activity by the manufacturer or rendered RNase free by use of the RNaseZap reagent (LifeTechnologies). mRNA is encapsulated at a cationic lipid amine to mRNA phosphate (N:P) molar ratio of 4:1. […] Percent encapsulation of mRNA in lipid nanoparticles is determined using the Quant-iT Ribogreen RNA Assay kit (Life Technologies). […] The difference calculated is the mRNA inside the particle. […]
In this section, each of the compounds is paired with its reported % encapsulation mRNA Leptin.

{"compound": "CCCCC/C=C\\C/C=C\\CCCCCCCC(=O)OCC(COC(=O)CCC(OCCCCCCCC)OCCCCCCCC)COC(=O)OC1CCN(C)CC1 (stereo not shown)", "output-unit": "%", "% encapsulation mRNA Leptin": 92.8}
{"compound": "CCCCCCCCCCCCCC(=O)OCC(COC(=O)CCC(OCCCCCCCC)OCCCCCCCC)COC(=O)C1CCN(C)C1 (stereo not shown)", "output-unit": "%", "% encapsulation mRNA Leptin": 70.5}
{"compound": "CCCCC/C=C\\C/C=C\\CCCCCCCC(=O)OCC(COC(=O)CCC(OCCCCCCCC)OCCCCCCCC)COC(=O)OC1CCN(C)C1 (stereo not shown)", "output-unit": "%", "% encapsulation mRNA Leptin": 90.4}
{"compound": "CCCCC/C=C\\C/C=C\\CCCCCCCC(=O)OCC(COC(=O)OCCN(C)C)COC(=O)C(OCCCCCCC)OCCCCCCC (stereo not shown)", "output-unit": "%", "% encapsulation mRNA Leptin": 96.9}
{"compound": "CCCCC/C=C\\C/C=C\\CCCCCCCC(=O)OCC(COC(=O)CCCCCC(CCCCCC)CCCCCC)COC(=O)OCCCN(CC)CC (stereo not shown)", "output-unit": "%", "% encapsulation mRNA Leptin": 82.0}
{"compound": "CCCCCCCCCCCCCCCC(=O)OCC(COC(=O)CCCCC(COC(=O)CCCCCCC)COC(=O)CCCCCCC)COC(=O)C1CCN(C)C1 (stereo not shown)", "output-unit": "%", "% encapsulation mRNA Leptin": 18.8}
{"compound": "CCCCC/C=C\\C/C=C\\CCCCCCCC(=O)OCC(COC(=O)CCC(OCCCCCCCC)OCCCCCCCC)COC(=O)C1CN(C)CCO1 (stereo not shown)", "output-unit": "%", "% encapsulation mRNA Leptin": 10.0}

###

experiment: Measurement of mRNA encapsulation in lipid nanoparticles (Quant-iT Ribogreen); format: physicochemical; conditions: Leptin mRNA in LNP
parameter-measured: % encapsulation mRNA Leptin (%)

{"molecule": "CCCCC/C=C\\C/C=C\\CCCCCCCC(=O)OCC(COC(=O)CCC(OCCCCCCCC)OCCCCCCCC)COC(=O)C1CCN(CC2CC2)CC1 (stereo not drawn)", "output-unit": "%", "observed-value": 97.1}
{"molecule": "CCCCC/C=C\\C/C=C\\CCCCCCCC(=O)OCC(COC(=O)CCCCCCC/C=C\\C/C=C\\CCCCC)COC(=O)C1(C)CCN(C)C1 (stereo not drawn)", "output-unit": "%", "observed-value": 96.7}
{"molecule": "CCCCCCCCOC(=O)CCCCCCCCC(=O)OCC(COC(=O)CCC(OCCCCCCCC)OCCCCCCCC)COC(=O)C1CCN(C)C1 (stereo not drawn)", "output-unit": "%", "observed-value": 79.3}
{"molecule": "CCCCC/C=C\\C/C=C\\CCCCCCCC(=O)OCC(COC(=O)CCCC(CCCCCCC)CCCCCCC)COC(=O)OCCCN(CC)CC (stereo not drawn)", "output-unit": "%", "observed-value": 95.3}
{"molecule": "CCCCC/C=C\\C/C=C\\CCCCCCCC(=O)OCC(COC(=O)CCCCCCC/C=C\\C/C=C\\CCCCC)COC(=O)CCN1CCN(C)CC1", "output-unit": "%", "observed-value": 70.5}
{"molecule": "CCCCCCCCOC(=O)CCCCCCCCC(=O)OCC(COC(=O)CCCCC(OCC(CCC)CCC)OCC(CCC)CCC)COC(=O)C1(C)CCN(C)CC1 (stereo not drawn)", "output-unit": "%", "observed-value": 96.5}

Reference source for all entries: patent US10059655B2
